target: Amine oxidase [flavin-containing] A (Rattus norvegicus); experiment: In vitro inhibitory concentration against Monoamine oxidase A of rat brain homogenates; value ranges from 0.5-1.6; type: tissue-based
Recorded metric: IC50 (µM)
Answer in µM, number only, no unit symbol.

// returns reported IC50 for input C#CCNC1CCc2c(O)cccc21 (stereo unspecified) 0.9

* * *

target: Acetylcholinesterase (Homo sapiens); experiment: In vitro inhibitory concentration against purified Acetylcholinesterase of human erythrocytes; value ranges from 42.5-45.9
Sequence (P22303 whole entry): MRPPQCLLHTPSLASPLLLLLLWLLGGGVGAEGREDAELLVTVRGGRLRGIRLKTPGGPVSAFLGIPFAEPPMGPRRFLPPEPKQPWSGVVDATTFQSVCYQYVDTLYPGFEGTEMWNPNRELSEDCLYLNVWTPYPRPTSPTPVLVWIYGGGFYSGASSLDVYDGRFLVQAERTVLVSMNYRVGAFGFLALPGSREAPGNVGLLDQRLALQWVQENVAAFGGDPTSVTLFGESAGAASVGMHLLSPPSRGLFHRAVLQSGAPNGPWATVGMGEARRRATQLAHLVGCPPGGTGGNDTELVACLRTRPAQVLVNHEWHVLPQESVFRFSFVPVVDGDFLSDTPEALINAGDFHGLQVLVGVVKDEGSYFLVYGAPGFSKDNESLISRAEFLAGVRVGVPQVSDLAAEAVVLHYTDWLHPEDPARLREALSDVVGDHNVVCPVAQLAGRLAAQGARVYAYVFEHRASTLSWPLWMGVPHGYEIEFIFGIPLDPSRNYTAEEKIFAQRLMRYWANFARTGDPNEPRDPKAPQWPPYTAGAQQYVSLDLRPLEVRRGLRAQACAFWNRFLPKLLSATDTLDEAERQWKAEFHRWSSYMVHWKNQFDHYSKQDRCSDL
Recorded metric: pIC50
# pIC50 is unitless: minus log10 of the molar concentration; print number only

Identify the measured pIC50 of C#CCNC1CCc2c(Cl)cc(OC(=O)N(C)CCC)cc21.Cl (stereo unspecified) for Acetylcholinesterase (Homo sapiens). 4.36

* * *

target: Amine oxidase [flavin-containing] A (Rattus norvegicus, UniProt P21396); assay: In vitro inhibitory concentration against Monoamine oxidase A of rat brain homogenates; value ranges from 170-340; format: tissue-based
Recorded metric: pIC50
# pIC50 is unitless: minus log10 of the molar concentration; print number only

// returns reported pIC50 for input C#CCNC1CCc2ccc(OC(=O)N(C)CCC)cc21 (stereo unspecified) 3.62

* * *

Biological target: Amine oxidase [flavin-containing] B (Rattus norvegicus)
Sequence (P19643 whole entry): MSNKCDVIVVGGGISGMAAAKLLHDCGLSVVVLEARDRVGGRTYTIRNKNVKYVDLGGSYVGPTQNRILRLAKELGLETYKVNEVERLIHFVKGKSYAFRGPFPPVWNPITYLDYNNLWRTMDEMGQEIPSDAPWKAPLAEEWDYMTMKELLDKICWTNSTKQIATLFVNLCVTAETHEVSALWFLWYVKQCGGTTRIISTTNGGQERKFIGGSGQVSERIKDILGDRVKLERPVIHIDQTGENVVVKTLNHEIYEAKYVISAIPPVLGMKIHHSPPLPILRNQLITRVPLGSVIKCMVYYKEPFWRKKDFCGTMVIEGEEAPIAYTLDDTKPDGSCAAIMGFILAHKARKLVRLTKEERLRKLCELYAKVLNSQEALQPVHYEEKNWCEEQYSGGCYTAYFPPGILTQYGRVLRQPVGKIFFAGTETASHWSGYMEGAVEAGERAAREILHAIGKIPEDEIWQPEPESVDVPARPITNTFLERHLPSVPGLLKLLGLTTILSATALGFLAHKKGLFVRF
Experiment: In vitro inhibitory concentration against Monoamine oxidase B of rat brain homogenates; value ranges from 75-200
Recorded metric: IC50
Your answer should be a number followed by the unit of measure.

// returns reported IC50 for input C#CCNC1CCc2ccc(OC(=O)N(C)CC)cc2C1 (stereo unspecified) 120 µM

* * *

Target: Amine oxidase [flavin-containing] A (Rattus norvegicus)
Sequence (P21396 whole entry): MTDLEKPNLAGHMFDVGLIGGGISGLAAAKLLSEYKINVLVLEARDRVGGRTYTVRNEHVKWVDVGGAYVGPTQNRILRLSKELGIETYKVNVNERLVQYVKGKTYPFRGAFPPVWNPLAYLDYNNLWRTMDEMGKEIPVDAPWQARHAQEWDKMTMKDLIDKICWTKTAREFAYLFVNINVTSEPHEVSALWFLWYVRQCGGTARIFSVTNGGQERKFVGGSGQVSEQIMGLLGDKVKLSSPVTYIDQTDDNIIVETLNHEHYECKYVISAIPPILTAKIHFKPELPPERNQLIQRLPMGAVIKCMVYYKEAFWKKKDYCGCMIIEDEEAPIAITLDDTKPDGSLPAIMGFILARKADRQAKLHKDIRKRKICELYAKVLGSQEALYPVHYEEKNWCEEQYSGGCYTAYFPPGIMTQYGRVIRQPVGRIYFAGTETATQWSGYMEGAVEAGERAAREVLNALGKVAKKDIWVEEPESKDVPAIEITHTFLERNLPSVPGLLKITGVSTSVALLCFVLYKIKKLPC
Test: In vitro inhibitory concentration against Monoamine oxidase A of rat brain homogenates; value ranges from 60-150
Type: tissue-based
Recorded metric: IC50 (µM)
Answer in µM, number only, no unit symbol.

// returns reported IC50 for input `CN(C)C(=O)Oc1cccc(CCN)c1` 95
